methodNotes: NCI Yeast Anticancer Drug Screen. Data for the bub3 strain (AID 167)
experimentalConditions: S. cerevisiae bub3 mutant strain, at 50.0 µM (retest, dose inferred, filed as 5.0)
The panel holds about 79,000 compounds, 15% with a hit somewhere; the sample as a whole holds those more often. The source made the active and inactive calls. Cut-off read from the data, not from the text of the source: active = growth inhibition above about 70%; inactive = the rest.
Entry note: the call must match one of label 1 = active, label 0 = inactive

Give the logged outcome of this assay for the following compound: O=c1c(O)c(-c2ccc(Cl)cc2)oc2cc(O)ccc12
label 0

Give the logged outcome of this assay for the following compound: O=C(CSc1nccc(=O)[nH]1)c1ccccc1
label 0

Give the logged outcome of this assay for the following compound: CC(C)(C)C(=O)CC(=O)C(F)(F)C(F)(F)C(F)(F)F.[Ag]
label 1

Give the logged outcome of this assay for the following compound: Oc1cccc(Oc2cccc(Oc3ccccc3)c2)c1
label 1

Give the logged outcome of this assay for the following compound: O=C(O)CCCCCCC(=O)CCl
label 1

Give the logged outcome of this assay for the following compound: O=C1NC(=Nc2ccccc2)C(=Nc2ccccc2)N1c1ccccc1
label 1

Give the logged outcome of this assay for the following compound: O=[N+]([O-])c1cc2ccc(O)cc2c2ccccc12
label 1

Give the logged outcome of this assay for the following compound: CSC(=S)N/N=C\C(O)C(O)C(O)C(O)CO (stereo unspecified)
label 0

Give the logged outcome of this assay for the following compound: O=[N+]([O-])c1ccc(N/N=C/c2cccnc2)cc1
label 0

Give the logged outcome of this assay for the following compound: O=c1oc(-c2ccccc2Br)ns1
label 1

Give the logged outcome of this assay for the following compound: O=C1c2ccccc2C(=O)c2cc(O)ccc21
label 1

Give the logged outcome of this assay for the following compound: O=C(CNc1cccc(Cl)c1)Nn1c(-c2ccccc2)nc2ccccc2c1=O
label 1

Give the logged outcome of this assay for the following compound: Cc1cc(Cl)cc2c1NC(=O)C2(O)C/C(=N/NC(=O)CC#N)c1cccc([N+](=O)[O-])c1 (stereo unspecified)
label 0

Give the logged outcome of this assay for the following compound: Cc1csc(N)[n+]1CCC(=O)[O-]
label 0

Give the logged outcome of this assay for the following compound: [N-]=[N+]=Nc1ccc(SN2C(=O)c3ccccc3C2=O)cc1
label 0

Give the logged outcome of this assay for the following compound: O=C(c1ccc(O)cc1)c1ccccc1O
label 0

Give the logged outcome of this assay for the following compound: Brc1cccc[n+]1Cc1cc2ccccc2c2ccccc12
label 1

Give the logged outcome of this assay for the following compound: CC1(C)C=CC2=C(O1)C(=O)c1ccccc1C2=O
label 1

Give the logged outcome of this assay for the following compound: C/C(=N/NC(=S)N1CCCC1)c1cccc(/C(C)=N\NC(=S)N2CCCC2)n1
label 0

Give the logged outcome of this assay for the following compound: CCCCC1C(=S)N(c2ccccc2)N(c2ccccc2)C1=S
label 0

Give the logged outcome of this assay for the following compound: C=C(CN(C)C)C(=O)c1ccccc1Cl
label 1

###

methodNotes: NCI Yeast Anticancer Drug Screen. Data for the cln2 rad14 strain (AID 165);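 note: 0% = growth equal to vehicle treated cultures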
experimentalConditions: S. cerevisiae cln2 rad14 strain, at 50.0 µM (retest, dose inferred, filed as 5.0)
Procedure: Growth inhibition of yeast strains with defined genetic alterations is measured as a screen for potential anti-cancer activity. Selected strains with alterations in DNA damage repair or cell cycle control were exposed to compounds and growth inhibition was measured relative to vehicle treated controls. The strain used in this assay is cln2 rad14
The panel holds about 79,000 compounds, 15% with a hit somewhere; the sample as a whole holds those more often. Activity calls are given as the source filed them. Cut-off read from the data, not from the text of the source: active = growth inhibition above about 70%; inactive = the rest.
Entry note: the call must match one of active, inactive

Give the logged outcome of this assay for the following molecule: Cc1ccc(-c2c(N)[n+]([O-])c3ccccc3[n+]2[O-])cc1
active

Give the logged outcome of this assay for the following molecule: CC(=O)OC1=C(Br)CCc2ccccc21
active

Give the logged outcome of this assay for the following molecule: O=c1[nH]c(=O)c2cc([N+](=O)[O-])cc([N+](=O)[O-])c2[nH]1
inactive

Give the logged outcome of this assay for the following molecule: CC(=O)Oc1c(Br)cc(Br)cc1Br
inactive

Give the logged outcome of this assay for the following molecule: Cn1nc(-c2ccc3c(c2)OCO3)[n+]([O-])c2c(=O)n(C)c(=O)nc1-2
active

Give the logged outcome of this assay for the following molecule: NC(=O)C(=CNc1nc(-c2ccc(Br)cc2)cs1)C(N)=O
active

Give the logged outcome of this assay for the following molecule: N#CC(Cc1ccc(CC(C#N)(c2ccccc2)c2ccccn2)cc1)(c1ccccc1)c1ccccn1 (configuration not stated)
inactive

Give the logged outcome of this assay for the following molecule: Cc1ccc(O)c(Cc2cccc(Cl)c2)c1
active

Give the logged outcome of this assay for the following molecule: COC12C(COC(N)=O)C3=C(C(=O)C(C)=C(N)C3=O)N1CC1C2N1C(=O)c1ccc(Cl)cc1 (configuration not stated)
active

Give the logged outcome of this assay for the following molecule: COc1ccc2c(C)cc(N/N=C(\C)c3ccccn3)nc2c1
inactive

Give the logged outcome of this assay for the following molecule: Cc1nn(-c2ccc(Cl)cc2)c2nc(N)nc(N)c12
inactive

Give the logged outcome of this assay for the following molecule: CC(C)(C)OC(=O)NCCNC(=O)CN(CC(=O)O)C1CCCCC1N(CC(=O)O)CC(=O)O (configuration not stated)
inactive

Give the logged outcome of this assay for the following molecule: O=S(NCc1ccccc1)c1ccccc1 (configuration not stated)
inactive

Give the logged outcome of this assay for the following molecule: COc1ccc(C(c2ccc(C(C)C)cc(OC)c2=O)c2ccc(C(C)C)cc(OC)c2=O)cc1
inactive

Give the logged outcome of this assay for the following molecule: CCOC(=O)/C=C(/Cl)C(=O)OCC
active

Give the logged outcome of this assay for the following molecule: COc1cc(O)c2c(c1)C(O)C(O)CC1OC1C(=O)/C=C/CC(C)OC2=O (configuration not stated)
active

Give the logged outcome of this assay for the following molecule: CCCCCCCC(=O)/C=C/c1ccc(C)cc1
inactive

Give the logged outcome of this assay for the following molecule: CC(C)(C)C(=O)CC(=O)C(F)(F)C(F)(F)C(F)(F)F.[Ag]
active

Give the logged outcome of this assay for the following molecule: CCCCCCCCCCCC1=NCC(C)N1 (configuration not stated)
inactive

Give the logged outcome of this assay for the following molecule: Cn1c2c(c3ccccc31)CCN(CCCN1CCN(c3ccccc3)CC1)C2=O
inactive

Give the logged outcome of this assay for the following molecule: CCOC(=O)c1ccc(NC(=O)O/N=C(/Cl)CC)cc1
inactive

Give the logged outcome of this assay for the following molecule: CCNC(=O)COc1ccc(Cl)cc1Cl
inactive

Give the logged outcome of this assay for the following molecule: Cc1cc(O)cc(C)c1[N+](=O)[O-]
inactive

Give the logged outcome of this assay for the following molecule: N#Cc1ccc2nc3ccc(N)cc3nc2c1
active

Give the logged outcome of this assay for the following molecule: CC(C)(C)CC(C)(C)c1ccc(O)c(Cl)c1
active

Give the logged outcome of this assay for the following molecule: CCCc1cc2c(cc1CN(C#N)Cc1cc3c(cc1CCC)OCO3)OCO2
inactive

Give the logged outcome of this assay for the following molecule: CC1=CC(O)(c2nc3ccccc3s2)CC(C)(C)C1 (configuration not stated)
inactive

Give the logged outcome of this assay for the following molecule: CC(=O)c1cccc(NC2C(N)C(NC(=O)N(C)C)(C(C)O)C(C)(O)C2(O)COC(=O)c2c(C)cccc2O)c1 (configuration not stated)
active

Give the logged outcome of this assay for the following molecule: CC(O)C1CCCC[N+]1(C)C (configuration not stated)
inactive

Give the logged outcome of this assay for the following molecule: Oc1c2c(c(O)c3ncccc13)C1C=CC2CC1 (configuration not stated)
active

Give the logged outcome of this assay for the following molecule: COc1ccc(N=Nc2ccc3oc(=O)c(C(=O)Nc4ccc(OC)cc4)cc3c2)cc1
active

Give the logged outcome of this assay for the following molecule: ClC1(Cl)c2ccccc2-c2ccccc21
inactive

Give the logged outcome of this assay for the following molecule: COC1/C=C\OC2(C)Oc3c(C)c(O)c4c(c3C2=O)C2=NC(C)(C)N(c3ccccc3)C2=C(NC(=O)/C(C)=C\C=C\C(C)C(O)C(C)C(O)C(C)C(OC(C)=O)C1C)C4=O (configuration not stated)
active

Give the logged outcome of this assay for the following molecule: COc1ccc(C2COc3cc(OC(C)=O)c(OC(C)=O)cc3C2)cc1 (configuration not stated)
active

Give the logged outcome of this assay for the following molecule: COc1ccc(-c2cc(=O)c3c(C)ccnc3[nH]2)cc1
inactive

Give the logged outcome of this assay for the following molecule: O=C(O)/C(=C/c1ccccc1)c1ccccc1.[Ag]
active

Give the logged outcome of this assay for the following molecule: COc1ccc(NC(=O)CSC(N)=O)cc1
inactive

Give the logged outcome of this assay for the following molecule: CCCCCCCCCCCCCCCC(=O)N1CC[N+](C)(C)CC1
active

Give the logged outcome of this assay for the following molecule: ONC(=Nc1cccc2ccccc12)C(=Nc1cccc2ccccc12)NO
active

Give the logged outcome of this assay for the following molecule: OC(CBr)C[n+]1cccc2cc(Cl)ccc21 (configuration not stated)
inactive

Give the logged outcome of this assay for the following molecule: COc1ccc(-c2c(COC(C)=O)c(COC(C)=O)c3n2CCC3)cc1
inactive

Give the logged outcome of this assay for the following molecule: Cc1ccc(S(=O)/C=C/S(=O)(=O)c2ccc(C)cc2)cc1 (configuration not stated)
active

Give the logged outcome of this assay for the following molecule: CCCC(=O)NCCNC(=O)CCC
inactive

Give the logged outcome of this assay for the following molecule: Nc1ccccc1N=Cc1ccccc1O
inactive

Give the logged outcome of this assay for the following molecule: CC(=O)CC1(O)C(=O)Nc2ccc(Br)cc21 (configuration not stated)
inactive

Give the logged outcome of this assay for the following molecule: O=C(NC1(OC(=O)c2ccc(Cl)cc2)CC1)c1ccc(Cl)cc1
active

Give the logged outcome of this assay for the following molecule: CC1(CO)CCCC2(C)C3=C(CCCC3)CCC12 (configuration not stated)
active
